Value source: ChEMBL document CHEMBL1821711

Entries and their measured pIC50 follow.
- systemName: 5-hydroxytryptamine receptor 2C (Homo sapiens)
- Sequence (P28335 whole entry): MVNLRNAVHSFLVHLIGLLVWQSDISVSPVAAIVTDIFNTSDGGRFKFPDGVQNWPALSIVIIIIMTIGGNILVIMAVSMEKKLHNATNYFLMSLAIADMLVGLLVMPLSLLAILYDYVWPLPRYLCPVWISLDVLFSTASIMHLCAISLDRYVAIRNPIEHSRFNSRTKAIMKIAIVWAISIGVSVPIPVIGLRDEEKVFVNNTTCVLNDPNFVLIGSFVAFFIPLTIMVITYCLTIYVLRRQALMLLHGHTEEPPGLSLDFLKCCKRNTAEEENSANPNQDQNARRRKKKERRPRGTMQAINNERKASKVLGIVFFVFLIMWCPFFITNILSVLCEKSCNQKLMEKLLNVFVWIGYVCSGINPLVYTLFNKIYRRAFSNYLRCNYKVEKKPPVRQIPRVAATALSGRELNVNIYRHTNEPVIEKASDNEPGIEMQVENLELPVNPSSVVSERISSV
- test: biochemical
- Description: Displacement of [3H]mesulergine from human recombinant 5-HT2C receptor expressed in CHO-K1 cells
pIC50: −log10 of the molar value.
parameter: pIC50

compound=CCCc1nc(C(=O)NCCCN2CCN(c3cccc(Cl)c3C)CC2)cn1-c1ccc(Cl)cc1 operatorsymbol== readoutvalue=6.44
compound="CCCn1c(C)nc(C(=O)NCC(O)CN2CCN(c3cccc(C)c3C)CC2)c1C (stereo unspecified)" operatorsymbol=< readoutvalue=5.00
compound=Cc1c(Cl)cccc1N1CCN(CCCNC(=O)c2nc(C)n(-c3ccc(F)cc3)c2C)CC1 operatorsymbol== readoutvalue=6.95
compound=Cc1cccc(N2CCN(CCCNC(=O)c3nc(-c4ccccc4)n(-c4ccc(F)cc4)c3C)CC2)c1C operatorsymbol== readoutvalue=7.19
compound=CCCc1nc(C(=O)NCCCN2CCN(c3cccc(C)c3C)CC2)c(C)n1-c1ccc(F)cc1 operatorsymbol== readoutvalue=7.17
compound=COc1ccc(-n2cc(C(=O)NCCCN3CCN(c4cccc(C)c4C)CC3)nc2-c2ccccc2)cc1 operatorsymbol== readoutvalue=6.98
compound=CCCc1nc(C(=O)NCCCN2CCN(c3cccc(C)c3C)CC2)cn1-c1ccc(F)cc1 operatorsymbol== readoutvalue=6.62
compound=CCCc1nc(C(=O)NCCCN2CCN(c3cccc(C)c3C)CC2)c(C)n1-c1ccccc1Cl operatorsymbol== readoutvalue=6.63
compound=CCCn1c(C)nc(C(=O)NCCCN2CCN(c3cccc(Cl)c3Cl)CC2)c1C operatorsymbol== readoutvalue=6.70
compound=Cc1nc(C(=O)NCCCN2CCN(c3cccc(Cl)c3Cl)CC2)c(C)n1C1CCCC1 operatorsymbol== readoutvalue=6.86
compound=CCCc1nc(C(=O)NCCCN2CCN(c3cccc(C)c3C)CC2)c(C)n1-c1ccccc1 operatorsymbol== readoutvalue=6.54
compound=CCCc1nc(C(=O)NCCCN2CCN(c3cccc(Cl)c3C)CC2)c(C)n1-c1ccc(F)cc1 operatorsymbol== readoutvalue=6.64
compound=Cc1c(Cl)cccc1N1CCN(CCCNC(=O)c2nc(C)n(-c3ccc4c(c3)OCCO4)c2C)CC1 operatorsymbol== readoutvalue=6.97
compound="Cc1c(Cl)cccc1N1CCN(CC(O)CNC(=O)c2nc(C)n(C3CCCC3)c2C)CC1 (stereo unspecified)" operatorsymbol== readoutvalue=6.78
compound=Cc1cccc(N2CCN(CCCNC(=O)c3nc(-c4ccccc4)n(-c4ccccc4)c3C)CC2)c1C operatorsymbol== readoutvalue=6.71
compound="CCCc1nc(C(=O)NCC(O)CN2CCN(c3cccc(C)c3C)CC2)c(C)n1-c1ccc2c(c1)OCCO2 (stereo unspecified)" operatorsymbol== readoutvalue=6.23
